# IC50 per entry for Neuraminidase (Influenza A virus (A/Puerto Rico/8/1934(H1N1)), UniProt P03468)
Give the quantity in nM, number only.

Recorded results for 3 compounds are shown here.
INSERT INTO results (compound_string, endpoint_result) VALUES
  ('CCN(CC)C(=O)[C@@H]1OC(C(=O)O)=C[C@H](N)[C@H]1NC(C)=O', 20),
  ('CCCN(CCC)C(=O)[C@@H]1OC(C(=O)O)=C[C@H](N)[C@H]1NC(C)=O', 20),
  ('CCCN(C)C(=O)[C@@H]1OC(C(=O)O)=C[C@H](NC(=N)N)[C@H]1NC(C)=O', 28);

Next compound, please.
Observed IC50 on Neuraminidase (Influenza A virus (A/Puerto Rico/8/1934(H1N1)), UniProt P03468) for `CCCN(C)C(=O)[C@@H]1OC(C(=O)O)=C[C@H](N)[C@H]1NC(C)=O` , please.
Sequence (P03468 whole entry): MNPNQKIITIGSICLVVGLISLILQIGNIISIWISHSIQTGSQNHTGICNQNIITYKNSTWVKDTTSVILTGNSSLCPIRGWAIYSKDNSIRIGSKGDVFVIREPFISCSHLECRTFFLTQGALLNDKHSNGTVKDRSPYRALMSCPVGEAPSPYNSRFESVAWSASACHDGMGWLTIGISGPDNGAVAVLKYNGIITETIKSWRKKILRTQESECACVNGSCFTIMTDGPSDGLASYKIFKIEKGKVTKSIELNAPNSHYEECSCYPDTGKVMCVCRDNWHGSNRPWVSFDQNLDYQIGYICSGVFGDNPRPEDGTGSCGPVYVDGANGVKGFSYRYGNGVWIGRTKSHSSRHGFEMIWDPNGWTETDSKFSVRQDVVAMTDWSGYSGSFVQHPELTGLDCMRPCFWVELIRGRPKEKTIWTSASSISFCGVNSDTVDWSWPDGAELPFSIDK
110

---

target: Neuraminidase (Influenza A virus (A/Puerto Rico/8/1934(H1N1)), UniProt P03468)
test_description: Inhibition of influenza A virus sialidase activity
Catalogue of molecules with associated log10 of IC50
Record value = log10 of IC50 given in nM.

Recorded results for 8 molecules are shown here.
INSERT INTO measurements (molecule, endpoint_result) VALUES
  ('CCCN(CCc1ccc(Cl)cc1Cl)C(=O)[C@@H]1OC(C(=O)O)=C[C@H](N)[C@H]1NC(C)=O', 0.78),
  ('CC(=O)N[C@@H]1[C@@H](N)C=C(C(=O)O)O[C@H]1C(=O)N(CCc1ccccc1)CC(N)=O', 4.28),
  ('CCCN(CCCc1ccccc1)C(=O)[C@@H]1OC(C(=O)O)=C[C@H](N)[C@H]1NC(C)=O', 1.26),
  ('CC(=O)N[C@@H]1[C@@H](N)C=C(C(=O)O)O[C@H]1C(=O)N(CCN)CCc1ccccc1', 4.67),
  ('CCCN(CCc1ccc(O)cc1)C(=O)[C@@H]1OC(C(=O)O)=C[C@H](N)[C@H]1NC(C)=O', 0.95),
  ('CC(=O)N[C@@H]1[C@@H](N)C=C(C(=O)O)O[C@H]1C(=O)N(CCc1ccccc1)C(C)C', 0.90),
  ('CCCN(CCc1ccccc1OC)C(=O)[C@@H]1OC(C(=O)O)=C[C@H](N)[C@H]1NC(C)=O', 0.95),
  ('CCCCCCCCCN(CCC)C(=O)[C@@H]1OC(C(=O)O)=C[C@H](N=C(N)N)[C@H]1NC(C)=O', 0.85);

Observed log10 of IC50 on Neuraminidase (Influenza A virus (A/Puerto Rico/8/1934(H1N1)), UniProt P03468) for CC(=O)N[C@@H]1[C@@H](N)C=C(C(=O)O)O[C@H]1C(=O)N1C(C)CCN1C (some centres not stated) , please.
2.32

Observed log10 of IC50 on Neuraminidase (Influenza A virus (A/Puerto Rico/8/1934(H1N1)), UniProt P03468) for `CCCN(CCc1cccc(O)c1)C(=O)[C@@H]1OC(C(=O)O)=C[C@H](N)[C@H]1NC(C)=O` , please.
0.48

Observed log10 of IC50 on Neuraminidase (Influenza A virus (A/Puerto Rico/8/1934(H1N1)), UniProt P03468) for `CC(=O)N[C@@H]1[C@@H](N)C=C(C(=O)O)O[C@H]1C(=O)N(CCCO)CCc1ccccc1` , please.
3.48

Observed log10 of IC50 on Neuraminidase (Influenza A virus (A/Puerto Rico/8/1934(H1N1)), UniProt P03468) for `CCCN(CCc1ccc(C(C)C)cc1)C(=O)[C@@H]1OC(C(=O)O)=C[C@H](N)[C@H]1NC(C)=O` , please.
1.08

Observed log10 of IC50 on Neuraminidase (Influenza A virus (A/Puerto Rico/8/1934(H1N1)), UniProt P03468) for CCC1CCC(CC)N1C(=O)[C@@H]1OC(C(=O)O)=C[C@H](N)[C@H]1NC(C)=O (some centres not stated) , please.
2.46

Observed log10 of IC50 on Neuraminidase (Influenza A virus (A/Puerto Rico/8/1934(H1N1)), UniProt P03468) for `CCCN(CCc1ccc(-c2ccccc2)cc1)C(=O)[C@@H]1OC(C(=O)O)=C[C@H](N)[C@H]1NC(C)=O` , please.
0.30

Observed log10 of IC50 on Neuraminidase (Influenza A virus (A/Puerto Rico/8/1934(H1N1)), UniProt P03468) for `CC(=O)N[C@@H]1[C@@H](N)C=C(C(=O)O)O[C@H]1C(=O)N(CCc1ccccc1)C1CC1` , please.
1.66

Observed log10 of IC50 on Neuraminidase (Influenza A virus (A/Puerto Rico/8/1934(H1N1)), UniProt P03468) for `CCCN(CCc1ccc(Cc2ccccc2)cc1)C(=O)[C@@H]1OC(C(=O)O)=C[C@H](N)[C@H]1NC(C)=O` , please.
2.43

---

target: Neuraminidase (Influenza A virus (A/Puerto Rico/8/1934(H1N1)))
Catalogue of compounds with associated IC50
Give the quantity in nM, number only.

INSERT INTO results (compound_string, unit_tag, endpoint_result) VALUES
  ('CCN(CC)C(=O)[C@@H]1OC(C(=O)O)=C[C@H](N)[C@H]1NC(C)=O', 'nM', 85);

Observed IC50 on Neuraminidase (Influenza A virus (A/Puerto Rico/8/1934(H1N1))) for `CCCN(C)C(=O)[C@@H]1OC(C(=O)O)=C[C@H](NC(=N)N)[C@H]1NC(C)=O` , please.
26

Observed IC50 on Neuraminidase (Influenza A virus (A/Puerto Rico/8/1934(H1N1))) for `CCCN(C)C(=O)[C@@H]1OC(C(=O)O)=C[C@H](N)[C@H]1NC(C)=O` , please.
4700

Observed IC50 on Neuraminidase (Influenza A virus (A/Puerto Rico/8/1934(H1N1))) for `CCCN(CCC)C(=O)[C@@H]1OC(C(=O)O)=C[C@H](N)[C@H]1NC(C)=O` , please.
30

---

target: Neuraminidase (Influenza A virus (A/Puerto Rico/8/1934(H1N1)))
test_description: Inhibition of influenza A virus sialidase activity
Catalogue of compounds with associated pIC50
The value called pIC50 is obtained by taking minus log10 of the concentration in mol/L.

Recorded results for 5 compounds are shown here.
INSERT INTO assay_data (compound, target, endpoint_result) VALUES
  ('CC(=O)N[C@@H]1[C@@H](N)C=C(C(=O)O)O[C@H]1C(=O)N1CCCC1', 'Neuraminidase (Influenza A virus (A/Puerto Rico/8/1934(H1N1)))', 5.54),
  ('CC(=O)N[C@@H]1[C@@H](N)C=C(C(=O)O)O[C@H]1C(=O)N(CCc1ccccc1)CC(C)C', 'Neuraminidase (Influenza A virus (A/Puerto Rico/8/1934(H1N1)))', 7.85),
  ('CC(=O)N[C@@H]1[C@@H](N)C=C(C(=O)O)O[C@H]1C(=O)N(CCc1ccccc1)CC(=O)O', 'Neuraminidase (Influenza A virus (A/Puerto Rico/8/1934(H1N1)))', 3.89),
  ('CC(=O)N[C@@H]1[C@@H](N)C=C(C(=O)O)O[C@H]1C(=O)N(CCO)CCc1ccccc1', 'Neuraminidase (Influenza A virus (A/Puerto Rico/8/1934(H1N1)))', 7.92),
  ('CCCN(CCc1ccc(OC)cc1)C(=O)[C@@H]1OC(C(=O)O)=C[C@H](N)[C@H]1NC(C)=O', 'Neuraminidase (Influenza A virus (A/Puerto Rico/8/1934(H1N1)))', 8.10);

Please report the recorded pIC50 for CC(=O)N[C@@H]1[C@@H](N)C=C(C(=O)O)O[C@H]1C(=O)N1CCCC1C (some centres undefined) .
6.51

Please report the recorded pIC50 for `CCCN(CCc1cccc(OC)c1)C(=O)[C@@H]1OC(C(=O)O)=C[C@H](N)[C@H]1NC(C)=O` .
8.30

Please report the recorded pIC50 for `CCCN(Cc1ccccc1)C(=O)[C@@H]1OC(C(=O)O)=C[C@H](N)[C@H]1NC(C)=O` .
5.38

Please report the recorded pIC50 for `CCCN(CCc1cccc(-c2ccccc2)c1)C(=O)[C@@H]1OC(C(=O)O)=C[C@H](N)[C@H]1NC(C)=O` .
8.70

---

# IC50 per entry for Neuraminidase (Influenza A virus (A/Puerto Rico/8/1934(H1N1)))
Give the quantity in nM, number only.

Recorded results for 3 compounds are shown here.
INSERT INTO assay_data (compound_string, target, unit_tag, endpoint_result) VALUES
  ('CCCN(CCC)C(=O)[C@@H]1OC(C(=O)O)=C[C@H](N)[C@H]1NC(C)=O', 'Neuraminidase (Influenza A virus (A/Puerto Rico/8/1934(H1N1)))', 'nM', 3),
  ('CCCN(C)C(=O)[C@@H]1OC(C(=O)O)=C[C@H](N)[C@H]1NC(C)=O', 'Neuraminidase (Influenza A virus (A/Puerto Rico/8/1934(H1N1)))', 'nM', 180),
  ('CCCN(C)C(=O)[C@@H]1OC(C(=O)O)=C[C@H](NC(=N)N)[C@H]1NC(C)=O', 'Neuraminidase (Influenza A virus (A/Puerto Rico/8/1934(H1N1)))', 'nM', 3);

Next compound, please.
Please report the recorded IC50 for `CCN(CC)C(=O)[C@@H]1OC(C(=O)O)=C[C@H](N)[C@H]1NC(C)=O` .
5
